For each of the variants below, state its sfGFP reporter fluorescence.
B1: library; a variant is named by its letters at X, in order (parent)
chain: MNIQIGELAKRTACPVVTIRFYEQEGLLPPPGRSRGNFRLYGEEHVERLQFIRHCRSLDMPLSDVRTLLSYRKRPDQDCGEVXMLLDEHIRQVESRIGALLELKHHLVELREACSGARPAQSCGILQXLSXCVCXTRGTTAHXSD

Variants of: B1
Assay: sfGFP reporter fluorescence (15 h) (µM FITC); higher = stronger transcriptional activation
Conditions: library round: Round 2; ligand: 1 µM Pb
Form field (numeric): enter value without unit.

response.value for NHDAW (field: sfGFP reporter fluorescence) = 0.117

Entry TGDDP D64E V108N , sfGFP reporter fluorescence reported as 0.0357

For this variant ( TGCDT ), measured sfGFP reporter fluorescence is 0.0731

Consider NGDAP P61N V108E . Its measured sfGFP reporter fluorescence is 0.129

sfGFP reporter fluorescence reported for this variant TGCDL : 0.0743

For record NGDDW R74Q G138A the listed sfGFP reporter fluorescence is 0.059

sfGFP reporter fluorescence recorded for this variant, TGDRP V108L , is 0.0788

// NTDDP P61N D64K L107C : sfGFP reporter fluorescence value = 2.58

The measured sfGFP reporter fluorescence associated with TGSDP H142A reads 0.081

GET /value?item= NIDDP I90L K104V L107C &field=sfGFP reporter fluorescence returns 0.0702

sfGFP reporter fluorescence measured on NGDDP = 0.0602

The variant listed as NGADW L126I has a reported sfGFP reporter fluorescence of 0.0592

Recorded sfGFP reporter fluorescence (variant NGYAP S95G ): 0.0795

Lab note: measured sfGFP reporter fluorescence of TGDPR E109L was 0.114

Reported sfGFP reporter fluorescence for NGAPL was 0.16

For reference, reported sfGFP reporter fluorescence for NIDDP P61N D64K K104V L107A stands at 0.215

sfGFP reporter fluorescence reading for NHDDW E109L : 0.0832

# sfGFP reporter fluorescence of NHDDA V108L = 0.0671

Query NHCDP I125V yields sfGFP reporter fluorescence of 0.0526

response.value for TGAYC (field: sfGFP reporter fluorescence) = 0.085

The recorded sfGFP reporter fluorescence for entry NIDDP D64K V108E equals 0.581

The variant listed as NADAP K104R has a reported sfGFP reporter fluorescence of 0.419
